FYI, the data here is from paper PMC8131325.

Target: T1, FABP3 with N-terminal His6 tag (UniProt P05413 1-133)
T1 construct: synthetic gene (Invitrogen GeneArt) in pET28a between NdeI and XhoI; Apo (delipidized) form; held on the Ni-NTA quartz sensor by the His6 tag; also called His6-FABP3; not shown: His6, N-terminal, kept
T1 sequence (P05413 whole entry): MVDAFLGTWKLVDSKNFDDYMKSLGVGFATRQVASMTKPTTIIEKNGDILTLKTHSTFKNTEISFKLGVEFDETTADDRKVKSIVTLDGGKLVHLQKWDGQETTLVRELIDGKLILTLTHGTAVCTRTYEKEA
Experiment: quartz crystal microbalance (QCM); His6-FABP3 (or FABP3 F16S) immobilised on the gold-plated quartz sensor through Ni-NTA groups; αSyn, its variants or peptides added at varying concentrations; room temperature; 50 mM Tris-HCl pH 7.4; kobs = koff + kon[αSyn], Kd from kon and koff (AQUA 2.0)
Conditions: both partners purified
A collection of binders and their measured kon
Include the unit right after the number.

In: Item EEGWQDWEPEA (source: synthetic peptide (SCRUM Inc or BEX Co Ltd)) [αSynP130-140 Y133W/Y136W] has what recorded kon?
Out: 240000 M⁻¹ s⁻¹

In: # iterate: EEGFQDFEPEA (source: synthetic peptide (SCRUM Inc or BEX Co Ltd)) [αSynP130-140 Y133F/Y136F]
Out: 540000 M⁻¹ s⁻¹

In: # iterate: EEGYQDFEPEA (source: synthetic peptide (SCRUM Inc or BEX Co Ltd)) [αSynP130-140 Y136F]
Out: 480000 M⁻¹ s⁻¹
